Target: Msn1 (UniProt P22148)
Sequence: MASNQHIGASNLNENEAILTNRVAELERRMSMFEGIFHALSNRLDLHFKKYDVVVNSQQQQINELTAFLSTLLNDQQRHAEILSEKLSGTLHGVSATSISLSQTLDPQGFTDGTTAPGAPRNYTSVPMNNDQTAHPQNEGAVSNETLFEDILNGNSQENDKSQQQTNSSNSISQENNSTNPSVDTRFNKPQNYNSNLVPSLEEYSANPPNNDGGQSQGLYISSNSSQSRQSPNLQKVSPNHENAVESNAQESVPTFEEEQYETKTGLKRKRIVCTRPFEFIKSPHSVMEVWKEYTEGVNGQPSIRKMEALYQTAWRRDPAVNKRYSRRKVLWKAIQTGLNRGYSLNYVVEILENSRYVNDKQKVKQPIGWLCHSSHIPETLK
Assay: PBM E-score (8-mer binding enrichment) (E-score (-0.5 to 0.5)); higher = stronger / more preferred TF binding
Settings: protein concentration: 200 nM; construct: GST-full length
The full ranking holds about 33,000 sequences; the median of “E-score (-0.5 to 0.5)” is about -0.013, and the highest 2% start at about 0.3. The sample holds the highest values, similar sequences and a random draw of the others, so the mix is not that of the screen.
quantityMeasured: PBM E-score
Please give the numeric answer without any surrounding text.

Measured on Msn1 (UniProt P22148), "AATCGAGT" has a documented PBM E-score of -0.0102

Measured on Msn1 (UniProt P22148), "AGCCTCCG" has a documented PBM E-score of -0.213

Measured on Msn1 (UniProt P22148), "ACAGGTGG" has a documented PBM E-score of -0.0714

Measured on Msn1 (UniProt P22148), "ACAGCTCG" has a documented PBM E-score of -0.137

Measured on Msn1 (UniProt P22148), "GTGGTACA" has a documented PBM E-score of 0.13

Measured on Msn1 (UniProt P22148), "ATGAGCAT" has a documented PBM E-score of 0.017

Measured on Msn1 (UniProt P22148), "AGGGCCTC" has a documented PBM E-score of -0.236

Measured on Msn1 (UniProt P22148), "CCGAAAAC" has a documented PBM E-score of 0.0665

Measured on Msn1 (UniProt P22148), "CTGGTATC" has a documented PBM E-score of -0.0417

Measured on Msn1 (UniProt P22148), "AAAGATAT" has a documented PBM E-score of 0.113

Measured on Msn1 (UniProt P22148), "CAACGTTG" has a documented PBM E-score of 0.128

Measured on Msn1 (UniProt P22148), "TATTGTGA" has a documented PBM E-score of 0.0467

Measured on Msn1 (UniProt P22148), "CAGAATAA" has a documented PBM E-score of 0.0293

Measured on Msn1 (UniProt P22148), "AGCGGCAG" has a documented PBM E-score of -0.149

Measured on Msn1 (UniProt P22148), "CTGCGACC" has a documented PBM E-score of -0.19

Measured on Msn1 (UniProt P22148), "ATGAGTGA" has a documented PBM E-score of 0.12

Measured on Msn1 (UniProt P22148), "ACGAGCTC" has a documented PBM E-score of -0.0205

Measured on Msn1 (UniProt P22148), "CCACCACA" has a documented PBM E-score of -0.214

Measured on Msn1 (UniProt P22148), "AATATGCC" has a documented PBM E-score of -0.141

Measured on Msn1 (UniProt P22148), "CGGAGGAC" has a documented PBM E-score of 0.0943

Measured on Msn1 (UniProt P22148), "TTTACAAA" has a documented PBM E-score of 0.12

Measured on Msn1 (UniProt P22148), "CGCTAGGA" has a documented PBM E-score of -0.0538
